Examples of sequences with documented Adjusted IL-12 index Mean follow.
System: PBMC
Experiment: 193 ssRNA 4mer-motif library screen: IL-12 (IL-12p40) production in PBMC of six donors, poly-L-Arg complexation, ELISA at 44 hours, IL-12 index and adjusted IL-12 index
Format: cell-based, human
Design: key: IL-12 index (ratio to 9.2sense) minus donor mean, averaged over 6 donors
Details: 193 ssRNA oligonucleotide library; data from six individual donors summarized; ascending order
Measure Name: Adjusted IL-12 index Mean

>>> quantitative_readout("AAAAAAAUCCCAAAAAAAA (RNA, backbone not given here) [ANP-Oligo 161]")
"−0.42"
>>> quantitative_readout("AAAAAAAGUACAAAAAAAA (RNA, backbone not given here) [ANP-Oligo 134]")
0.42
>>> quantitative_readout("AAAAAAAGACCAAAAAAAA (RNA, backbone not given here) [ANP-Oligo 101]")
"−0.6"
>>> quantitative_readout("AAAAAAAGGGUAAAAAAAA (RNA, backbone not given here) [ANP-Oligo 130]")
"−0.44"

---

System: PBMC
Assay: 193 ssRNA 4mer-motif library screen: IL-12 (IL-12p40) production in PBMC of six donors, poly-L-Arg complexation, ELISA at 44 hours, IL-12 index and adjusted IL-12 index
Type: cell-based, human
Parameters: key: IL-12 index (ratio to 9.2sense) minus donor mean, averaged over 6 donors
Settings: 193 ssRNA oligonucleotide library; data from six individual donors summarized; ascending order
Measure Name: Adjusted IL-12 index Mean

>>> result("AAAAAAAGAGCAAAAAAAA (RNA, backbone not given here) [ANP-Oligo 104]")
"−0.61"
>>> result("AAAAAAAGGGCAAAAAAAA (RNA, backbone not given here) [ANP-Oligo 128]")
"−0.64"
>>> result("AAAAAAAGGGGAAAAAAAA (RNA, backbone not given here) [ANP-Oligo 129]")
"−0.51"
>>> result("AAAAAAAACACAAAAAAAA (RNA, backbone not given here) [ANP-Oligo 014]")
"−0.64"
>>> result("AAAAAAACGCGAAAAAAAA (RNA, backbone not given here) [ANP-Oligo 078]")
"−0.59"
>>> result("AAAAAAACCAGAAAAAAAA (RNA, backbone not given here) [ANP-Oligo 063]")
"−0.57"
>>> result("AAAAAAAUUACAAAAAAAA (RNA, backbone not given here) [ANP-Oligo 182]")
0.11
>>> result("AAAAAAAUAUGAAAAAAAA (RNA, backbone not given here) [ANP-Oligo 156]")
0.27
>>> result("AAAAAAAUUCGAAAAAAAA (RNA, backbone not given here) [ANP-Oligo 186]")
"−0.08"
>>> result("AAAAAAAGAUUAAAAAAAA (RNA, backbone not given here) [ANP-Oligo 109]")
0.22
>>> result("AAAAAAAUGAUAAAAAAAA (RNA, backbone not given here) [ANP-Oligo 172]")
1.92
>>> result("AAAAAAACUUUAAAAAAAA (RNA, backbone not given here) [ANP-Oligo 097]")
"−0.1"
>>> result("AAAAAAAAGGAAAAAAAAA (RNA, backbone not given here) [ANP-Oligo 009]")
"−0.66"
>>> result("AAAAAAAUAACAAAAAAAA (RNA, backbone not given here) [ANP-Oligo 146]")
"−0.16"
>>> result("AAAAAAAGACGAAAAAAAA (RNA, backbone not given here) [ANP-Oligo 102]")
"−0.64"
>>> result("AAAAAAAUGGCAAAAAAAA (RNA, backbone not given here) [ANP-Oligo 176]")
2.41
>>> result("AAAAAAAGAUCAAAAAAAA (RNA, backbone not given here) [ANP-Oligo 107]")
"−0.2"

---

System: PBMC
Assay: 193 ssRNA 4mer-motif library screen: IL-12 (IL-12p40) production in PBMC of six donors, poly-L-Arg complexation, ELISA at 44 hours, IL-12 index and adjusted IL-12 index
Type: cell-based, human
Set-up: key: IL-12 index (ratio to 9.2sense) minus donor mean, averaged over 6 donors
Conditions: 193 ssRNA oligonucleotide library; data from six individual donors summarized; ascending order
Method: FIG. 9: PBMC of six different healthy donors were isolated and stimulated with poly-L-arginine complexed ssRNA oligonucleotides in duplicates. 44 hours after stimulation IL-12p40 production was assessed in supernatant via ELISA. […] All 193 ssRNA oligonucleotides were tested on PBMC of six individual healthy donors using poly-L-Arg for complexation. At 44 hours after stimulation with RNA oligonucleotides, supernatants were collected and IL-12 production was measured by ELISA. […]
Could you please mark 1.0 for values of Adjusted IL-12 index Mean below -0.5 and 0.0 for values at or above it?

>>> discrete_label("AAAAAAAAUGAAAAAAAAA (RNA, backbone not given here) [ANP-Oligo 012]")
0.0
>>> discrete_label("AAAAAAAACUGAAAAAAAA (RNA, backbone not given here) [ANP-Oligo 024]")
0.0
>>> discrete_label("AAAAAAAGCAUAAAAAAAA (RNA, backbone not given here) [ANP-Oligo 112]")
0.0
>>> discrete_label("AAAAAAAGGCCAAAAAAAA (RNA, backbone not given here) [ANP-Oligo 125]")
1.0
>>> discrete_label("AAAAAAAGCCUAAAAAAAA (RNA, backbone not given here) [ANP-Oligo 115]")
0.0
>>> discrete_label("AAAAAAAACGCAAAAAAAA (RNA, backbone not given here) [ANP-Oligo 020]")
1.0
>>> discrete_label("AAAAAAACGCUAAAAAAAA (RNA, backbone not given here) [ANP-Oligo 079]")
0.0
>>> discrete_label("AAAAAAAAGGCAAAAAAAA (RNA, backbone not given here) [ANP-Oligo 032]")
1.0

---

System: PBMC
Assay: 193 ssRNA 4mer-motif library screen: IL-12 (IL-12p40) production in PBMC of six donors, poly-L-Arg complexation, ELISA at 44 hours, IL-12 index and adjusted IL-12 index
Format: cell-based, human
Design: key: IL-12 index (ratio to 9.2sense) minus donor mean, averaged over 6 donors
Details: 193 ssRNA oligonucleotide library; data from six individual donors summarized; ascending order
Examples of sequences with documented Adjusted IL-12 index Mean follow.
Measure Name: Adjusted IL-12 index Mean

>>> quantitative_readout("AAAAAAAUUAUAAAAAAAA (RNA, backbone not given here) [ANP-Oligo 184]")
0.56
>>> quantitative_readout("AAAAAAACAAUAAAAAAAA (RNA, backbone not given here) [ANP-Oligo 052]")
"−0.37"
>>> quantitative_readout("AAAAAAAGCGCAAAAAAAA (RNA, backbone not given here) [ANP-Oligo 116]")
"−0.58"
>>> quantitative_readout("AAAAAAAAGUAAAAAAAAA (RNA, backbone not given here) [ANP-Oligo 010]")
"−0.16"
>>> quantitative_readout("AAAAAAAGUAUAAAAAAAA (RNA, backbone not given here) [ANP-Oligo 136]")
1.04
>>> quantitative_readout("AAAAAAAAUGCAAAAAAAA (RNA, backbone not given here) [ANP-Oligo 044]")
0.2
>>> quantitative_readout("AAAAAAAAUUAAAAAAAAA (RNA, backbone not given here) [ANP-Oligo 013]")
"−0.09"
>>> quantitative_readout("AAAAAAACCUUAAAAAAAA (RNA, backbone not given here) [ANP-Oligo 073]")
"−0.28"

---

System: PBMC
Test: 193 ssRNA 4mer-motif library screen: IL-12 (IL-12p40) production in PBMC of six donors, poly-L-Arg complexation, ELISA at 44 hours, IL-12 index and adjusted IL-12 index
Format: cell-based, human
Parameters: key: IL-12 index (ratio to 9.2sense) minus donor mean, averaged over 6 donors
Details: 193 ssRNA oligonucleotide library; data from six individual donors summarized; ascending order
Label 0.0 if Adjusted IL-12 index Mean falls below 0.3; label 1.0 in every other case.

>>> discrete_label("AAAAAAAUGAGAAAAAAAA (RNA, backbone not given here) [ANP-Oligo 171]")
0.0
>>> discrete_label("AAAAAAAUAUCAAAAAAAA (RNA, backbone not given here) [ANP-Oligo 155]")
1.0
>>> discrete_label("AAAAAAAUCUCAAAAAAAA (RNA, backbone not given here) [ANP-Oligo 167]")
1.0
>>> discrete_label("AAAAAAAUAGGAAAAAAAA (RNA, backbone not given here) [ANP-Oligo 153]")
1.0
>>> discrete_label("AAAAAAAGGAUAAAAAAAA (RNA, backbone not given here) [ANP-Oligo 124]")
1.0
>>> discrete_label("AAAAAAAACAUAAAAAAAA (RNA, backbone not given here) [ANP-Oligo 016]")
0.0
>>> discrete_label("AAAAAAAGAUGAAAAAAAA (RNA, backbone not given here) [ANP-Oligo 108]")
0.0
>>> discrete_label("AAAAAAAAUACAAAAAAAA (RNA, backbone not given here) [ANP-Oligo 038]")
0.0

---

Test system: PBMC
Experiment: 193 ssRNA 4mer-motif library screen: IL-12 (IL-12p40) production in PBMC of six donors, poly-L-Arg complexation, ELISA at 44 hours, IL-12 index and adjusted IL-12 index
Format: cell-based, human
Set-up: key: IL-12 index (ratio to 9.2sense) minus donor mean, averaged over 6 donors
Details: 193 ssRNA oligonucleotide library; data from six individual donors summarized; ascending order
Measure Name: Adjusted IL-12 index Mean

>>> quantitative_readout("AAAAAAAAUUUAAAAAAAA (RNA, backbone not given here) [ANP-Oligo 049]")
"−0.07"
>>> quantitative_readout("AAAAAAACUCCAAAAAAAA (RNA, backbone not given here) [ANP-Oligo 089]")
"−0.42"
>>> quantitative_readout("AAAAAAACUGCAAAAAAAA (RNA, backbone not given here) [ANP-Oligo 092]")
0
>>> quantitative_readout("AAAAAAAAGCGAAAAAAAA (RNA, backbone not given here) [ANP-Oligo 030]")
"−0.6"
